test system: P aeruginosa; assay: MIC by broth microdilution, P aeruginosa isolates; type: cell-based, Pseudomonas aeruginosa; details: clinical isolate AG031, APH(3′)-II

COMPOUND: CCCC(O)C1OC(OC2C(N)CC(N)C(O)C2OC2OC(CO)C(OC3OC(CN)C(O)C(O)C3N)C2O)C(N)C(O)C1O (centres unmarked) [DC142]
TARGET_OR_TEST_SYSTEM: P aeruginosa
REPORTED_RELATION: >
MIC AG031 P. aer. APH(3′)-II [mg/L]: 128
//
COMPOUND: NC[C@@H]1O[C@H](O[C@H]2[C@@H](O)[C@H](O[C@@H]3[C@@H](O)[C@H](N)C[C@H](N)[C@H]3O[C@H]3O[C@H](CN)[C@@H](O)[C@H](O)[C@H]3N)O[C@@H]2CO)[C@H](N)[C@@H](O)[C@@H]1O [neomycin, Neomycin B, reference compound]
TARGET_OR_TEST_SYSTEM: P aeruginosa
REPORTED_RELATION: =
MIC AG031 P. aer. APH(3′)-II [mg/L]: 8
//
COMPOUND: NCC1OC(OC2C(CNC=O)OC(OC3C(O)C(N)CC(N)C3OC3OC(CO)C(O)C(O)C3N)C2O)C(N)C(O)C1O (centres unmarked)
TARGET_OR_TEST_SYSTEM: P aeruginosa
REPORTED_RELATION: ≥
MIC AG031 P. aer. APH(3′)-II [mg/L]: 128
//
COMPOUND: NC[C@@H]1O[C@H](O[C@H]2[C@@H](O)[C@H](O[C@@H]3[C@@H](O)[C@H](N)C[C@H](N)[C@H]3O[C@H]3O[C@H](CN)[C@@H](O)[C@H](O)[C@H]3O)O[C@@H]2CO)[C@H](N)[C@@H](O)[C@@H]1O
TARGET_OR_TEST_SYSTEM: P aeruginosa
REPORTED_RELATION: =
MIC AG031 P. aer. APH(3′)-II [mg/L]: 128

src = patent US11466044B2
